src = ChEMBL document CHEMBL3507680

Overview of recorded cytotoxicity at 70.5 h for various compounds
assay: Human HepG2 cell viability assay in 384 well format; assay type: toxicity, cell-based; set-up: dose 125 nL, time 70.5 hour; concentration not given beside the values; details: HepG2 cells, read-out: Inhibition
Record the value in %, omitting the unit from your answer.

Solved entries (count: 2):
>>> obs_value("c1ccc2cc(OCCCN3CCn4c(nnc4C4CC4)C3)ccc2c1")
-6.02
>>> obs_value("CCCC1COCCN1Cc1ccc(NC(C)=O)cc1 (stereo not drawn)")
-3.46

Which cytotoxicity at 70.5 h is reported for this compound? Cc1nnsc1C(=O)N1CC[C@H](c2ccccc2)[C@@H]2[C@H]1CCCCN2C
-3.09

Which cytotoxicity at 70.5 h is reported for this compound? Cc1cc(-c2nc(-c3cccc(CN4CCOCC4)c3)no2)no1
0.395

Which cytotoxicity at 70.5 h is reported for this compound? COc1cc(C(=O)N(Cc2cnn(C)c2)C(C)C)ccc1OC(C)C
3.17

Which cytotoxicity at 70.5 h is reported for this compound? Cc1cc(C)n(C2CCCN(C(=O)COCC(F)(F)F)C2)n1 (stereo not drawn)
-22.5

Which cytotoxicity at 70.5 h is reported for this compound? COc1ccc(Oc2nccc3occc23)cc1CN1CCCC1
-6.39

Which cytotoxicity at 70.5 h is reported for this compound? COc1ccc(-c2nc(CN3CCCS3(=O)=O)co2)cc1
14.5

* * *

test: Human HepG2 cell viability assay in 384 well format; format: toxicity, cell-based; set-up: dose 125 nL, time 70.5 hour; concentration not given beside the values; conditions: HepG2 cells, read-out: Inhibition
Overview of recorded cytotoxicity at 70.5 h for various compounds
Record the result as a number with its unit.

Solved entries (count: 5):
>>> obs_value("CCNC(=O)N1CCC(=Cc2ccccc2)CC1")
"1.05%"
>>> obs_value("Cc1nc2c(C(=O)O)cccc2n1-c1ccc(C(=O)N2CCCC2)o1")
"7.08%"
>>> obs_value("CCc1nc(CN(C)C2CCN(CCc3ccncc3)C2)no1 (centres undefined)")
"-1.6%"
>>> obs_value("CC(C)Nc1nc(-c2ccccc2)nc2c1CCN(C(=O)C1CC1)CC2")
"-9.57%"
>>> obs_value("O=C1NC[C@H]2CN(C3CCOCC3)CCN12")
"-4.38%"

Which cytotoxicity at 70.5 h is reported for this compound? Cc1ccc(SCCN(C)C(=O)c2cn([C@H]3CC[C@@H](N)CC3)nn2)cc1
16.5%

Which cytotoxicity at 70.5 h is reported for this compound? Cn1ccnc1CNc1nccc(-c2ncnn2C)n1
-14.8%

Which cytotoxicity at 70.5 h is reported for this compound? O=C(NC1CC1)c1cnc2n1CCCC2
6.87%

* * *

assay: Human HepG2 cell viability assay in 384 well format; format: toxicity, cell-based; set-up: dose 125 nL, time 70.5 hour; concentration not given beside the values; conditions: HepG2 cells, read-out: Inhibition
readout-type: cytotoxicity at 70.5 h (%)
Record the value in %, omitting the unit from your answer.

>>> obs_value("COCc1noc(-c2ccc(N3CCCCC3CCCO)nc2)n1 (stereo not drawn)")
-3.48
>>> obs_value("Cc1c(I)cccc1C(=O)NCc1nnc[nH]1")
-8.8

Now for another entry.
Which cytotoxicity at 70.5 h is reported for this molecule? O=C(Nc1ccccc1)[C@H]1C[C@@H]2CN(C(=O)Nc3ccccc3)C[C@H]1O2
-27.2

* * *

assay: Human HepG2 cell viability assay in 384 well format; format: toxicity, cell-based; parameters: dose 125 nL, time 70.5 hour; concentration not given beside the values; conditions: HepG2 cells, read-out: Inhibition
readout-type: cytotoxicity at 70.5 h (%)
Record the value in %, omitting the unit from your answer.

Solved entries (count: 6):
>>> obs_value("NC(=O)C1CCN(C(=O)NCc2ccccc2-n2cccn2)C1 (stereo not given)")
-4.02
>>> obs_value("COCC1CN(C(=O)c2cnc(C)cn2)Cc2ncnn2C1 (stereo not given)")
19
>>> obs_value("C[C@@H]1CN(C2(C(=O)N3CCCCCC3)Cc3ccccc3C2)C[C@H](C)O1")
-7.47
>>> obs_value("CCN(Cc1nc(C)no1)C(=O)C1CC(=O)N(Cc2ccccn2)C1 (stereo not given)")
-13.9
>>> obs_value("Cn1c(CCC(=O)N2CCC3(CCCO3)CC2)nc2cccnc21")
-9.63
>>> obs_value("Cc1ccc(CSc2nc(N)cc(NCCC(N)=O)n2)cc1")
-0.193

Which cytotoxicity at 70.5 h is reported for this compound? CCC(CC)c1cc(C(=O)N2CCCC(n3cncn3)C2)on1 (stereo not given)
-1.84

Which cytotoxicity at 70.5 h is reported for this compound? CC[C@@]1(O)CCN(C(=O)CCc2cnn(C)c2)C[C@H]1O
-9.56

Which cytotoxicity at 70.5 h is reported for this compound? c1cc(COC[C@H]2CCC[C@]23CNCCO3)ccn1
0.216

Which cytotoxicity at 70.5 h is reported for this compound? CCC(C)(C)NCc1nc(C(C)(C)NC(=O)OC(C)(C)C)no1
-10.2

Which cytotoxicity at 70.5 h is reported for this compound? O=S(=O)(NCC1COc2ccccc2C1)N1CCCC1 (stereo not given)
-2.58

* * *

assay: Human HepG2 cell viability assay in 384 well format; type: toxicity, cell-based; set-up: dose 125 nL, time 70.5 hour; concentration not given beside the values; settings: HepG2 cells, read-out: Inhibition
readout-type: cytotoxicity at 70.5 h (%)
Record the value in %, omitting the unit from your answer.

Solved entries (count: 3):
>>> obs_value("Cc1[nH]ncc1C(=O)N1CCCC1c1noc(C2CC2)n1 (centres undefined)")
19.4
>>> obs_value("CN1CCN(Cc2c(-c3ccco3)[nH]c3ncccc23)CC1")
-6.17
>>> obs_value("N#Cc1c(SCCN2CCCCCC2)sc2c(O)cc(O)nc12")
12.1

Which cytotoxicity at 70.5 h is reported for this molecule? CN(C)C[C@]12COC[C@H]1CN(Cc1ccc3c(c1)OCO3)C2
-2.79

Which cytotoxicity at 70.5 h is reported for this molecule? Cn1cc(CN2CC[C@@H](O)[C@@H]2Cc2ccccc2)cn1
-7.36

* * *

assay: Human HepG2 cell viability assay in 384 well format; type: toxicity, cell-based; design: dose 125 nL, time 70.5 hour; concentration not given beside the values; settings: HepG2 cells, read-out: Inhibition
readout-type: cytotoxicity at 70.5 h (%)
Record the value in %, omitting the unit from your answer.

Solved entries (count: 3):
>>> obs_value("Cc1nn(C)c2nc(NCCOCCO)sc12")
-4.46
>>> obs_value("Cc1cc(C)n(CC2CCCCN2CC(=O)N(C)Cc2ccco2)n1 (stereo not drawn)")
6.64
>>> obs_value("c1cnc(N2CCO[C@H]3CN(Cc4csnn4)C[C@H]32)nc1")
-11.7

Which cytotoxicity at 70.5 h is reported for this molecule? CCc1ncc(CN2CCN(CCOC)CC2)cn1
7.17

Which cytotoxicity at 70.5 h is reported for this molecule? CC(=O)N1CCCC1C(=O)NCCOc1cc(C)cc(C)c1 (stereo not drawn)
-30.3

Which cytotoxicity at 70.5 h is reported for this molecule? COc1cccc(CNc2c(C)cnc3c2c(=O)n(C)c(=O)n3C)c1
35.6

Which cytotoxicity at 70.5 h is reported for this molecule? Cc1cc(C)cc(C2(C(=O)N3CCCC(n4cncn4)C3)CC2)c1 (stereo not drawn)
-17.8

Which cytotoxicity at 70.5 h is reported for this molecule? CCN1CCN(C2CCN(Cc3ccc(Cl)s3)CC2)C1=O
1.3

* * *

Overview of recorded cytotoxicity at 70.5 h for various compounds
assay: Human HepG2 cell viability assay in 384 well format; assay type: toxicity, cell-based; parameters: dose 125 nL, time 70.5 hour; concentration not given beside the values; conditions: HepG2 cells, read-out: Inhibition
Record the value in %, omitting the unit from your answer.

>>> obs_value("Cc1cnn(CC2CCCN2C(=O)CCc2cscn2)c1 (stereo unspecified)")
-13.6
>>> obs_value("Cc1noc(C(C)N(C)CC(=O)NCCc2ccc(Cl)cc2)n1 (stereo unspecified)")
24.6
>>> obs_value("Cc1cc(CN(C)Cc2ccccc2N2CCCCC2)n[nH]1")
1.54
>>> obs_value("Cc1noc(CC2CCN(C(=O)C(c3ccccc3C)N(C)C)CC2)n1 (stereo unspecified)")
-12.1
>>> obs_value("COc1ccc(CN2CCCN(c3cc(C(N)=O)ccn3)CC2)cc1")
9.62

Now for another entry.
Which cytotoxicity at 70.5 h is reported for this compound? Cn1ccnc1CN1CCCC(CO)(CCc2ccccc2)C1 (stereo unspecified)
-8.1

* * *

assay: Human HepG2 cell viability assay in 384 well format; assay type: toxicity, cell-based; parameters: dose 125 nL, time 70.5 hour; concentration not given beside the values; details: HepG2 cells, read-out: Inhibition
readout-type: cytotoxicity at 70.5 h (%)
Record the value in %, omitting the unit from your answer.

Solved entries (count: 2):
>>> obs_value("COc1ccc(C(=O)CCc2nc(C3CC3)no2)cc1")
-23.1
>>> obs_value("Cc1nc(C)n(C2CCCN(C(=O)c3ccc(CN(C)C)cc3)C2)n1 (stereo not drawn)")
-4.23

Now for another entry.
Which cytotoxicity at 70.5 h is reported for this compound? COc1cc(CNC(C)Cn2ccnc2)cc2c1OCO2 (stereo not drawn)
-10.9
